- Test system: hiPSCs differentiating into cardiomyocyte-like cells
- Assay Summary: ReproTracker cardiomyocyte differentiation assay
- Reported Conditions: lineage call (positive/equivocal/negative)
Measurement Type: ReproTracker results Cardiomyocyte-like cells

Cc1ccc(Nc2nccc(N(C)c3ccc4c(C)n(C)nc4c3)n2)cc1S(N)(=O)=O [Pazopanib] : Negative
COc1cc(C)c(/C=C/C(C)=C/C=C/C(C)=C/C(=O)O)c(C)c1C [Acitretin] : Positive
Nc1cccc2c1C(=O)N(C1CCC(=O)NC1=O)C2=O (stereo not shown) [Pomalidomide] : Positive
CC(C)(C)c1nc(-c2cccc(NS(=O)(=O)c3c(F)cccc3F)c2F)c(-c2ccnc(N)n2)s1 [Dabrafenib] : Negative
Nc1cccc2c1CN(C1CCC(=O)NC1=O)C2=O (stereo not shown) [Lenalidomide] : Positive

Respond only with ReproTracker results Cardiomyocyte-like cells recorded for ClC1(Cl)C2(Cl)C3(Cl)C4(Cl)C(Cl)(Cl)C5(Cl)C3(Cl)C1(Cl)C5(Cl)C24Cl (stereo not shown) [Mirex]
Negative

Respond only with ReproTracker results Cardiomyocyte-like cells recorded for O=P1(N(CCCl)CCCl)NCCCO1 (stereo not shown) [Cyclophosphamide]
Negative
